Test: recombinant barcode read abundance after kanamycin selection (control-corrected) (log10(CPM+1)); higher = more efficient recombination; sequences stand for … in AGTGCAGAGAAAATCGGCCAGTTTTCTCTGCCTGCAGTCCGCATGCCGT…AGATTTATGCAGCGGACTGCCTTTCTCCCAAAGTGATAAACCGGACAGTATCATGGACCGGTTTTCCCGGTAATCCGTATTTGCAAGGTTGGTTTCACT; site = the 11-nt target
Would you mind labelling by recombinant barcode read abundance (log10)? At or over 0.5 is fulfilled, under is not fulfilled.

Known results for sequences:
- CHAIN_SEQUENCE: "AGTCGGACTTGGGTTCTAACCTGTTGCTT (site AGTCATACTAA)"
  ASSIGNED_CATEGORY: "not fulfilled"
- CHAIN_SEQUENCE: "AGGTCCTCTTGGGTTCTAACCTGTTGCCT (site AGGTCCTCTAG)"
  ASSIGNED_CATEGORY: "fulfilled"
- CHAIN_SEQUENCE: "GTATCTACTTGGGTTCTAACCTGTTGCCT (site GTATCTACTAG)"
  ASSIGNED_CATEGORY: "not fulfilled"
- CHAIN_SEQUENCE: "CGAGCTCCTTGGGTTCTAACCTGTTGCGT (site CGAGCTCCTAG)"
  ASSIGNED_CATEGORY: "fulfilled"
- CHAIN_SEQUENCE: "GACTCTACTTGGGTTCTAACCTGTTGCTT (site GACTCTACTAA)"
  ASSIGNED_CATEGORY: "fulfilled"

## Input State whether the measured recombinant barcode read abundance (log10) reaches 0.5, counting equality as reaching it, for TAATCGTCTTGGGTTCTAACCTGTTGCCT (site TAATCGGCTAG)
## Output not fulfilled

## Input Given ACGACTTCTTGGGTTCTAACCTGTTGCCT (site ACGACTTCTAG) , state whether its recombinant barcode read abundance (log10) is at least 0.5.
## Output fulfilled

## Input Tell me whether recombinant barcode read abundance (log10) is at least 0.5 here: TCTAACCCTTGGGTTCTAACCTGTTGCGG (site TCGAACCCTCC)
## Output not fulfilled

## Input Please indicate if the recorded recombinant barcode read abundance (log10) for GACTATTCTTGGGTTCTAACCTGTTGCCT (site GAATATTCTAG) meets or exceeds 0.5.
## Output not fulfilled

###

Assay: recombinant UMI read abundance after kanamycin selection (control-corrected) (log10(CPM+1)); higher = more efficient recombination; extreme values may be limits of the assay; sequences stand for … in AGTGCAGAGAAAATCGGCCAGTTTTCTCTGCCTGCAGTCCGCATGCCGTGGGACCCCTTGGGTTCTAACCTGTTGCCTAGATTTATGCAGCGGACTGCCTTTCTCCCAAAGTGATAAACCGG…AGGTTGGTTTCACT; site = the 11-nt donor
PARAMETER_MEASURED: recombinant UMI read abundance (log10)
Numbers only.

- CHAIN_SEQUENCE: "ATCCAAGCATGGACCGGTTTTCCCGGTAATCCGTATTTGAG (site ATCCAAGCTAT)"
  recombinant UMI read abundance (log10): 1.64
- CHAIN_SEQUENCE: "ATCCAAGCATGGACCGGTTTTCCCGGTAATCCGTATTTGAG (site ATCCAAGCTCG)"
  recombinant UMI read abundance (log10): 0.141

Each sequence below has a reported value. Please supply its recombinant UMI read abundance (log10).
1. CTCCAGCCATGGACCGGTTTTCCCGGTAATCCGTATTTGAG (site CTCCAGCCTCT)
2. CGCGGACCATGGACCGGTTTTCCCGGTAATCCGTATTTGGG (site CGTGGACCTCC)

## Output
0.0271
0.0246

Batch lookup, recombinant UMI read abundance (log10) per entry.
1. GTGGCGGCATGGACCGGTTTTCCCGGTAATCCGTATTTGTG (site GTGGTGGCTCA)
2. CATCGAACATGGACCGGTTTTCCCGGTAATCCGTATTTGCT (site CATCGAACTAG)
3. CGCTTCTCATGGACCGGTTTTCCCGGTAATCCGTATTTGGG (site CTCTTCTCTCC)
4. CATGGCCCATGGACCGGTTTTCCCGGTAATCCGTATTTGTT (site CAAGGCCCTAA)

## Output
0.00615
2.31
0.0109
0.0112

Count: 3. Required value per item: recombinant UMI read abundance (log10).
1. CAAGCAGCATGGACCGGTTTTCCCGGTAATCCGTATTTGCT (site CAAGCAGCTGG)
2. TAGAATTCATGGACCGGTTTTCCCGGTAATCCGTATTTGTA (site TAGAATTCTTA)
3. ACATTCTCATGGACCGGTTTTCCCGGTAATCCGTATTTGCC (site ACATTCTCTGG)

## Output
[1.4, 1.67, 1.63]

Go through the items and report each one's recombinant UMI read abundance (log10).
1. ATTGAGACATGGACCGGTTTTCCCGGTAATCCGTATTTGGA (site ATTGAGACTTC)
2. CAATTCCCATGGACCGGTTTTCCCGGTAATCCGTATTTGCT (site CGATTCCCTAG)
3. CCTCACTCATGGACCGGTTTTCCCGGTAATCCGTATTTGCA (site CCTCACTCTTG)
4. CGGGTGTCATGGACCGGTTTTCCCGGTAATCCGTATTTGCC (site CGGGTGTCTGG)

## Output
1: 1; 2: 0; 3: 0.399; 4: 2.69

Give one value of recombinant UMI read abundance (log10) per listed sequence.
1. TACTGAGCATGGACCGGTTTTCCCGGTAATCCGTATTTGGG (site TAATGAGCTCC)
2. AGCCAATCATGGACCGGTTTTCCCGGTAATCCGTATTTGGA (site AGCCAATCTTC)
3. CGGGAACCATGGACCGGTTTTCCCGGTAATCCGTATTTGAT (site CGGGAACCTAC)

## Output
1: 0.0256; 2: 1.67; 3: 0.0116

###

Assay: recombinant barcode read abundance after kanamycin selection (control-corrected) (log10(CPM+1)); higher = more efficient recombination; sequences stand for … in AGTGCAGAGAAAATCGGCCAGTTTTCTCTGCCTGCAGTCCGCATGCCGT…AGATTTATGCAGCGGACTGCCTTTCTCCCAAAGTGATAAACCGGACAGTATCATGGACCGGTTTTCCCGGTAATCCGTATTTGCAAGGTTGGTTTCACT; site = the 11-nt target
Given measured recombinant barcode read abundance (log10), output true if it is greater than or equal to 0.2 and false if not.

Solved entries (count: 4):
- CHAIN_SEQUENCE: "TCATAGCCTTGGGTTCTAACCTGTTGCTG (site TCACAGCCTCA)"
  ASSIGNED_CATEGORY: "false"
- CHAIN_SEQUENCE: "CGGGCCACTTGGGTTCTAACCTGTTGCCT (site CTGGCCACTAG)"
  ASSIGNED_CATEGORY: "false"
- CHAIN_SEQUENCE: "CGGGGTCCTTGGGTTCTAACCTGTTGCTA (site CGGCGTCCTTA)"
  ASSIGNED_CATEGORY: "true"
- CHAIN_SEQUENCE: "CAAGTCCCTTGGGTTCTAACCTGTTGCCT (site TAAGTCCCTAG)"
  ASSIGNED_CATEGORY: "true"

Now take the following sequence into account.
## Input Is it the case that AGGCGTCCTTGGGTTCTAACCTGTTGCCT (site AGGCGTCCTTG) has recombinant barcode read abundance (log10) reaching or exceeding 0.2?
## Output true

###

Assignment: determine reported recombinant barcode read abundance (log10) for the given sequences.
Test: recombinant barcode read abundance after kanamycin selection (control-corrected) (log10(CPM+1)); higher = more efficient recombination; sequences stand for … in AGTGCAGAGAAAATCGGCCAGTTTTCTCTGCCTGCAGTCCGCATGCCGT…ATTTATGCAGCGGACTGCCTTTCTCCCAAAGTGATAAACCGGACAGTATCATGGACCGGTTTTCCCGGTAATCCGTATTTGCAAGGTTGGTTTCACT; site = the 11-nt target
Numbers only.

- CHAIN_SEQUENCE: "AGGCGGGTATGGGTTCTAACCTGTTGCGGAG [AGGCGGGCTCC_LTGcore_TA_RTGcore_CT] (site AGGCGGGCTCC) (LTG core: TA, RTG core: CT)"
  ASSAY_RESULT: 0.232
- CHAIN_SEQUENCE: "AAACAGTATTGGGTTCTAACCTGTTGCCTAG [AAACAGTCTAG_LTGcore_AT_RTGcore_CT] (site AAACAGTCTAG) (LTG core: AT, RTG core: CT)"
  ASSAY_RESULT: 0.571
- CHAIN_SEQUENCE: "TGTATTCCTTGGGTTCTAACCTGTTGCCTGT [TGTATTCCTAG_LTGcore_CT_RTGcore_AC] (site TGTATTCCTAG) (LTG core: CT, RTG core: AC)"
  ASSAY_RESULT: 0.0232

Would you be so kind as to report recombinant barcode read abundance (log10) for each listed record?
1. ATGTCCCCTTGGGTTCTAACCTGTTGCTCGT [ATGTCCCCTGA_LTGcore_CT_RTGcore_AC] (site ATGTCCCCTGA) (LTG core: CT, RTG core: AC)
2. GGGCGTGTGTGGGTTCTAACCTGTTGCCTAG [GGGCGTGCTAG_LTGcore_TG_RTGcore_CT] (site GGGCGTGCTAG) (LTG core: TG, RTG core: CT)

## Output
[0.161, 0.228]
